# measured_target: UniProtKB E1BKU0
# Sequence (E1BKU0 whole entry): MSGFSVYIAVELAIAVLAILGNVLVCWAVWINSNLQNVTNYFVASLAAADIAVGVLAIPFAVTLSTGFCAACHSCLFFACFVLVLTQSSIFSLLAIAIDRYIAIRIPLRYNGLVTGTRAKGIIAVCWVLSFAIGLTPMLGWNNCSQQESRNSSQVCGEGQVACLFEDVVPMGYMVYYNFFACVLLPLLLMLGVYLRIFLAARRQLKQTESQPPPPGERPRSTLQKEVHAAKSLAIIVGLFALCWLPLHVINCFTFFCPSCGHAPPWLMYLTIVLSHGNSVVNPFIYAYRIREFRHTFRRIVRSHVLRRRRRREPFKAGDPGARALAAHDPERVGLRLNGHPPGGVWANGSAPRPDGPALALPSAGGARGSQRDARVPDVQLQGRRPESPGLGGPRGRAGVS
# protocol_description: Displacement of [3H]CGS21680 from adenosine A2A receptor in bovine striatal membranes after 90 mins by liquid scintillation counting analysis
# Type: cell membranes, Striatum, Membrane
property_label: Ki (µM)

compound	property_label	measured_number
CCNC(=O)[C@H]1O[C@@H](n2cnc3c(N)nc(NCCc4ccc(CCC(=O)NCCNC(=S)Nc5ccc(C6c7ccc(O)cc7OC7=CC(=O)C=CC76)c(C(=O)O)c5)cc4)nc32)[C@H](O)[C@@H]1O (stereo partly specified)	Ki	0.0112

----------
# measured_target: UniProt:P29274
# protocol_description: Competitive binding affinity to human adenosine A2A receptor expressed in HEK293 cells after 60 mins by fluorescence polarization assay in presence of MRS5346

smiles_str	Ki (µM)
OC[C@H]1O[C@@H](n2cnc3c(NC4CCCC4)ncnc32)[C@H](O)[C@@H]1O	0.814

----------
# measured_target: Adenosine receptor A1 (Homo sapiens)
# protocol_description: Displacement of [3H]R-PIA from human adenosine A1 receptor expressed in CHO cells after 60 mins by […] analysis
# Format: cell-based
pKi: −log10 of the molar value.

compound	pKi
Cn1cc2c(nc(NNC(=S)Nc3ccc(C4c5ccc(O)cc5OC5=CC(=O)C=CC54)c(C(=O)O)c3)n3nc(-c4ccco4)nc23)n1 (configuration not stated)	5.02
N=c1ccc2c(-c3ccc(C(=O)NCCCCCCn4cc(CCCC(=O)Nc5nc6ccc(Cl)cc6c6nc(-c7ccco7)nn56)nn4)cc3C(=O)O)c3ccc(N)c(S(=O)(=O)O)c3oc-2c1S(=O)(=O)O	7.06

----------
# measured_target: Adenosine receptor A2a (Homo sapiens)
# Sequence (P29274 whole entry): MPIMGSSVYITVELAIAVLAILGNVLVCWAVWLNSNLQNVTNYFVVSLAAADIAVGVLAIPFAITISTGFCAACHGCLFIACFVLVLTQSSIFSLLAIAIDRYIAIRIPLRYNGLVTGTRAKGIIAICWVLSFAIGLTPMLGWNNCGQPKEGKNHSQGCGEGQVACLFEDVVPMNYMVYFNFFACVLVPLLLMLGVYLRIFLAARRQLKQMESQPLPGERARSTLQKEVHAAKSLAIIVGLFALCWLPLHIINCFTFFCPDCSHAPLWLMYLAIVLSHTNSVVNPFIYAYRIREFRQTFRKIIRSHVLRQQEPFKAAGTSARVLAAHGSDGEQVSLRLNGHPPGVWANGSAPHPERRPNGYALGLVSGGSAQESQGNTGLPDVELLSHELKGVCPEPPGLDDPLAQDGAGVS
# protocol_description: Displacement of [3H]CGS21680 from adenosine A2A receptor in human striatal membranes
# Format: cell membranes, Striatum, Membrane

smiles_str	lt_gt_eq	Ki [µM]
CCNC(=O)[C@H]1O[C@@H](n2cnc3c(NCCCCNc4ccc([N+](=O)[O-])c5nonc45)ncnc32)[C@H](O)[C@@H]1O	>	10
CCNC(=O)[C@H]1O[C@@H](n2cnc3c(NCCCCCCCCNc4ccc([N+](=O)[O-])c5nonc45)ncnc32)[C@H](O)[C@@H]1O	=	5.13
CCNC(=O)[C@H]1O[C@@H](n2cnc3c(NCCCCCCNc4ccc([N+](=O)[O-])c5nonc45)ncnc32)[C@H](O)[C@@H]1O	=	6.17
CCNC(=O)[C@H]1O[C@@H](n2cnc3c(NCCCCCCCCCCNc4ccc([N+](=O)[O-])c5nonc45)ncnc32)[C@H](O)[C@@H]1O	=	6.17
CCNC(=O)[C@H]1O[C@@H](n2cnc3c(NCCNc4ccc([N+](=O)[O-])c5nonc45)ncnc32)[C@H](O)[C@@H]1O	=	6.76

----------
# measured_target: Adenosine receptor A1 (Homo sapiens, UniProt P30542)
# Sequence (P30542 whole entry): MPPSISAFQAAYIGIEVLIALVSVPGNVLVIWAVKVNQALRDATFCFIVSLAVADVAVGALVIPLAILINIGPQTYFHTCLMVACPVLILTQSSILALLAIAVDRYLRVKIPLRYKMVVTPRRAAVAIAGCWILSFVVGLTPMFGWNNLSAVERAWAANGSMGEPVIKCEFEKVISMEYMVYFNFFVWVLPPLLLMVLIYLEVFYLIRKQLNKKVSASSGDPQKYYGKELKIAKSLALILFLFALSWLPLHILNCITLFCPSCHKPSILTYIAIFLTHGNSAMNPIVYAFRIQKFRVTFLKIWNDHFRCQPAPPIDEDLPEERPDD
# protocol_description: Displacement of [3H]DPCPX from adenosine A1 receptor in human cortical membranes
# Assay type: cell membranes
pKi: −log10 of the molar value.
property_label: pKi

smiles_str	property_label	result
CCNC(=O)[C@H]1O[C@@H](n2cnc3c(NCCNc4ccc([N+](=O)[O-])c5nonc45)ncnc32)[C@H](O)[C@@H]1O	pKi	< 5.00
CCNC(=O)[C@H]1O[C@@H](n2cnc3c(NCCCCCCNc4ccc([N+](=O)[O-])c5nonc45)ncnc32)[C@H](O)[C@@H]1O	pKi	< 5.00
CCNC(=O)[C@H]1O[C@@H](n2cnc3c(NCCCCNc4ccc([N+](=O)[O-])c5nonc45)ncnc32)[C@H](O)[C@@H]1O	pKi	< 5.00
